Measured log10(IC50), listed per entry.
biological target: recombinant human Car1 (Homo sapiens); experiment: Stopped-flow assay of Car1 enzyme inhibition (IC50)
Sequence (P00915 whole entry): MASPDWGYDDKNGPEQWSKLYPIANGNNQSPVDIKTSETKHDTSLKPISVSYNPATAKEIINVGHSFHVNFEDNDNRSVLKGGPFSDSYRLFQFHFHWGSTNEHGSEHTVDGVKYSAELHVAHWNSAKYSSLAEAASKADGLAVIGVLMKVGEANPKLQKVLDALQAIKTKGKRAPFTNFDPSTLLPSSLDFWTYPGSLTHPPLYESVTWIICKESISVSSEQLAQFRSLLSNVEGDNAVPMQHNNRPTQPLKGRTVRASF
Log10 applied to IC50; unit prior to transform: nM.

[[record]]
molecule = "NS(=O)(=O)c1ccc(C2(O)C(=O)N(Cc3ccc(F)c(F)c3)c3ccccc32)cc1 (centres unmarked) [NEM-9A]"
measured_result = 1.71

[[record]]
molecule = "NS(=O)(=O)c1ccc(C2(O)C(=O)N(Cc3ccc(N4CCCC4)cc3)c3ccccc32)cc1 (centres unmarked) [NEM-24A]"
measured_result = 1.65

[[record]]
molecule = "NS(=O)(=O)c1ccc(C2(O)C(=O)N(c3cccc4cc5c(cc34)OCO5)c3ccccc32)cc1 (centres unmarked) [NEM-37A]"
measured_result = 0.72

[[record]]
molecule = "COc1ccc2c(N3C(=O)C(O)(c4ccc(S(N)(=O)=O)cc4)c4ccccc43)cccc2c1 (centres unmarked) [NEM-15A]"
measured_result = 1.55


Continue with the molecule presented below.
Query: Form field: reported log10(IC50) of NS(=O)(=O)c1ccc(C2(O)C(=O)N(CC3CCOCC3)c3ccccc32)cc1 (centres unmarked) [NEM-12A]
Response: 1.80
